Tested Target: stabilized BG505 SOSIP construct MD39 (HIV isolate BG505)
Test Description: competition ELISA on MD39 vs 35022
Measure Name: competition value
I only need the number, thanks.

As a guide, the following entries are already answered.
>>> measurement("NC-Cow2 (antibody) VH: KVQLRESGPSLVKPSQTLSLTCMVSGSSLSDKAVGWVRQAPGKALEWLGIISAGGNRGYNSGLRSRLTISKDNSKNEVSLRVRSVTTEDSATYFCGTVHQKTQRKPICPDGYSDDSTLRYYSRCSDRDCWRCTGTTYYDTCQCGTYTWIDTHELHVDAWGQGLLVTVSS VL: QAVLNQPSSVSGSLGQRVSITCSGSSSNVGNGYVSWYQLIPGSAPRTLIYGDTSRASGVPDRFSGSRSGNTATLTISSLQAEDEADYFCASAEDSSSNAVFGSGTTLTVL")
11
>>> measurement("NC-Cow4 (antibody) VH: KVQLRESGPSLVKPSQTLSLTCMVSGFSLNDEAVGWVRQAPGKALEWLGSIDAGGSTGYNPGLKSRLSISKDNSKNQVSLSVSSVTTEDSATYYCGTVHQRTQPKQTCPNGYSDDSALRYYSRCSDRDCWRCTGTTYYDTCQCSSYTYIHTYELYVDAWGQGLLVTVSS VL: QAVLTQPSSVSGSLGQRVSITCSGSSSNVGNGYVSWYQLIPGSAPRTLIYGDTSRASGVPDRFSGSRSGNTATLTISSLQAEDEADYFCASPEDSSSNAVFGSGTTLTVL")
18
>>> measurement("NC-Cow7 (antibody) VH: KVQLRESGPSLVKPFETLSLTCTGSGFSLSDKAAGWVRQAPGKAPEWLGSIDTGGNTGYNPGLKYRLSITKDNSKSQVSLSVSSMTSEDSATYYCTTVHQKAYKKVCPDDYSSNPDCVRLYGWSHCDCMRDSFGGWCRADGCSSTVEIGPYEWYVNAWGQGLLVTVSS VL: QAVLTQPSSVSGSLGQRVSITCSGSSSNVGNGYVSWYQLIPGSAPRSLIYGDTSRASGVPDRFSGSRSGNTATLTISSLQAEDEADYFCASPEDSSSNGVFGSGTTLTVL")
5

Now examine the next entry.
Can you look up the measured competition value of NC-Cow5 (antibody) VH: QVQLQESGPSLVKPSQTLSLTCMVSGFSLNDKAVGWVRQAPGKALEWLGSIDAGGSTGYNPGLKSRLSISKDNSKNQVSLSVSSVTTEDSATYYCGTVHQRTQPKQTCPNGYSDDSALRYYSRCSDRDCWRCTGTTYYDTCQCSSYTYIHTYELYVDAWGQGLLVTVSS VL: QDVLTQPSSVSGSLGQRVSITCSGSSSNVGNGYVSWYQLIPGSAPRTLIYGDTSRASGVPDRFSGSRSGNTATLTISSLQAEDEADYFCASPEDSSSNAVFGSGTTLTVL for me?
14
